PROCEDURE DETAILS: Pharmacokinetic parameter AUC evaluated in 0.5% methylcellulose suspension at a dose of 20 mg/kg orally
Type: ADME, organism-based
Set-up: dose 20 mg/kg, route oral
STUDY CONDITIONS: in vivo, po
MEASURED PROPERTY: AUC (ng·h/mL)
The response must be a number in ng·h/mL with no trailing unit.

Request: Using the record for C[C@](Cc1c[nH]c2ccccc12)(NC(=O)OC1C2CC3CC(C2)CC1C3)C(=O)N[C@@H]1CCCC[C@H]1O (stereo partly specified) , state its measured AUC.
Response: 673

* * *

PROCEDURE DETAILS: Pharmacokinetic parameter half-life evaluated in HP-beta-CD solution at a dose of 20 mg/kg orally
Type: ADME, organism-based
Design: dose 20 mg/kg, route oral
STUDY CONDITIONS: in vivo, po
MEASURED PROPERTY: half-life (min)
Express it in min; write the number only.

Request: Read off the recorded half-life for C[C@](Cc1c[nH]c2ccccc12)(NC(=O)OC1C2CC3CC(C2)CC1C3)C(=O)N[C@@H]1CCCC[C@H]1O (stereo partly specified)
Response: 54

* * *

PROCEDURE DETAILS: Maximum plasma concentration was evaluated in 10% of PEG suspension at a dose of 20 mg/kg orally
Format: ADME, organism-based
Set-up: dose 20 mg/kg, route oral
STUDY CONDITIONS: po
MEASURED PROPERTY: Cmax (ng/mL)
Hi! Could you send only the number? It should be in ng/mL, unit omitted.

Request: Give Cmax for C[C@](Cc1c[nH]c2ccccc12)(NC(=O)OC1C2CC3CC(C2)CC1C3)C(=O)N[C@@H]1CCCC[C@H]1O (stereo partly specified)
Response: 203

* * *

PROCEDURE DETAILS: Absolute oral bioavailability was evaluated in DMA:H2O solution at a dose of 20 mg/kg orally
Type: ADME, organism-based
STUDY CONDITIONS: eutheria, in vivo
MEASURED PROPERTY: bioavailability

Request: Respond only with bioavailability recorded for C[C@](Cc1c[nH]c2ccccc12)(NC(=O)OC1C2CC3CC(C2)CC1C3)C(=O)N[C@H](CO)Cc1ccccc1 (stereo partly specified)
Response: 9.6%

* * *

PROCEDURE DETAILS: Pharmacokinetic parameter tmax was evaluated in HP-beta-CD solution at a dose of 20 mg/kg orally
Format: ADME, organism-based
Set-up: dose 20 mg/kg, route oral
STUDY CONDITIONS: in vivo, po
Recorded measurements of Tmax, one per entry
Return type: number; implicit unit h.

Request: Indicate the recorded Tmax value for this compound: C[C@](Cc1c[nH]c2ccccc12)(NC(=O)OC1C2CC3CC(C2)CC1C3)C(=O)N[C@@H]1CCCC[C@H]1O (some centres not stated)
Response: 1.8

Request: Quickly give me recorded Tmax for C[C@](Cc1c[nH]c2ccccc12)(NC(=O)OC1C2CC3CC(C2)CC1C3)C(=O)N[C@H](CO)Cc1ccccc1 (some centres not stated)
Response: 0.9

* * *

PROCEDURE DETAILS: Pharmacokinetic parameter half-life was evaluated in 100% PEG solution at a dose of 20 mg/kg orally
Assay type: ADME, organism-based
Design: dose 20 mg/kg, route oral
STUDY CONDITIONS: in vivo, po
MEASURED PROPERTY: half-life (h)
Value expressed in h; do not type the unit.

Request: Recall and state the measured half-life for C[C@](Cc1c[nH]c2ccccc12)(NC(=O)OC1C2CC3CC(C2)CC1C3)C(=O)N[C@@H]1CCCC[C@H]1O (stereo partly specified) .
Response: 1.3
